# targetUnderTest: Carbonic anhydrase 3 (Homo sapiens, UniProt P07451)
# Sequence (P07451 whole entry, the tested form may be a part): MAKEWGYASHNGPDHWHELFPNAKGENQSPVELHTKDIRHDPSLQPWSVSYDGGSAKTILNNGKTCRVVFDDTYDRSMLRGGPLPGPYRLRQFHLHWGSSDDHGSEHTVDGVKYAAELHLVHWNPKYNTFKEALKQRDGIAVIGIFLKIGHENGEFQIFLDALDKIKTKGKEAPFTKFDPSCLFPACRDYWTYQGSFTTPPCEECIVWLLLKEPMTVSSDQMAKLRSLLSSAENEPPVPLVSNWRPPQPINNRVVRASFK
# assay: Binding affinity to recombinant N-terminal His6x-tagged human CA3 (4 to 260 residues) expressed in Escherichia coli BL21(DE3) by DSF-based fluorescence thermal shift assay
Listed here are molecules together with their documented Kd.

Worked cases, answers included:
molecule: Cc1cc(N2CC(C(=O)N/N=C/c3ccc(Br)cc3)CC2=O)c(Cl)c(C)c1S(N)(=O)=O (stereo not given)
targetUnderTest: Carbonic anhydrase 3 (Homo sapiens, UniProt P07451)
Kd: ≥ 200 µM
--
molecule: COC(=O)C1CC(=O)N(c2cc(C)c(S(N)(=O)=O)c(C)c2Cl)C1 (stereo not given)
targetUnderTest: Carbonic anhydrase 3 (Homo sapiens, UniProt P07451)
Kd: ≥ 200 µM
--
molecule: Cc1cc(N2CC(C(=O)N/N=C/c3ccccc3)CC2=O)c(Cl)c(C)c1S(N)(=O)=O (stereo not given)
targetUnderTest: Carbonic anhydrase 3 (Homo sapiens, UniProt P07451)
Kd: ≥ 200 µM
--
molecule: Cc1cc(N2CC(C(=O)O)CC2=O)c(Cl)c(C)c1S(N)(=O)=O (stereo not given)
targetUnderTest: Carbonic anhydrase 3 (Homo sapiens, UniProt P07451)
Kd: 110 µM

Let's switch to this molecule now.
Incoming: Consider the molecule COC(=O)C1CC(=O)N(c2c(Br)c(C)c(S(N)(=O)=O)c(C)c2Br)C1 (stereo not given) and give its measured Kd.
Outgoing: ≥ 200 µM

----------
# targetUnderTest: Carbonic anhydrase 4 (Homo sapiens, UniProt P22748)
# Sequence (P22748 whole entry): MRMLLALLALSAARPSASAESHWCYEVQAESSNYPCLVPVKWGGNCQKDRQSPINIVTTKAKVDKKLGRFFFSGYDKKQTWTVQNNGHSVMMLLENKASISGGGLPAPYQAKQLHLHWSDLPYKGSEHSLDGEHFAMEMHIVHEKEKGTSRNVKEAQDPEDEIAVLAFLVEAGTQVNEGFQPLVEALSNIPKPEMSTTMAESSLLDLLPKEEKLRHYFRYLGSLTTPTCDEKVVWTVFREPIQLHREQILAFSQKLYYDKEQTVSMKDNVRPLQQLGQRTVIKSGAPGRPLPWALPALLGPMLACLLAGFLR
# assay: Binding affinity to recombinant human CA4 by DSF-based fluorescence thermal shift assay
Listed here are molecules together with their documented Kd.
Your answer is read as µM, so omit the unit and give the number.

Worked cases, answers included:
molecule: Cc1cc(N2CC(C(=O)NN)CC2=O)c(Cl)c(C)c1S(N)(=O)=O (stereo not given)
Kd (µM): 0.5
--
molecule: NS(=O)(=O)c1ccc(NC(=O)C2CC(=O)N(c3ccc(Br)cc3)C2)cc1 (stereo not given)
Kd (µM): 5.6
--
molecule: NS(=O)(=O)c1ccc(NC(=O)C2CC(=O)N(c3cccc(Br)c3)C2)cc1 (stereo not given)
Kd (µM): 0.81
--
molecule: Cc1cc(C)n(C(=O)C2CC(=O)N(c3cc(C)c(S(N)(=O)=O)c(C)c3)C2)n1 (stereo not given)
Kd (µM): 6
--
molecule: Cc1cc(C)n(NC(=O)C2CC(=O)N(c3cc(C)c(S(N)(=O)=O)c(C)c3)C2)n1 (stereo not given)
Kd (µM): 2
--
molecule: Cc1cc(N2CC(C(=O)N/N=C/c3ccc([N+](=O)[O-])cc3)CC2=O)c(Cl)c(C)c1S(N)(=O)=O (stereo not given)
Kd (µM): 0.48

Incoming: Consider the molecule Cc1cc(NC(=O)C2CC(=O)N(c3ccccc3)C2)cc(C)c1S(N)(=O)=O (stereo not given) and give its measured Kd.
Outgoing: 6.8

----------
# targetUnderTest: Carbonic anhydrase 7 (Homo sapiens, UniProt P43166)
# Sequence (P43166 whole entry): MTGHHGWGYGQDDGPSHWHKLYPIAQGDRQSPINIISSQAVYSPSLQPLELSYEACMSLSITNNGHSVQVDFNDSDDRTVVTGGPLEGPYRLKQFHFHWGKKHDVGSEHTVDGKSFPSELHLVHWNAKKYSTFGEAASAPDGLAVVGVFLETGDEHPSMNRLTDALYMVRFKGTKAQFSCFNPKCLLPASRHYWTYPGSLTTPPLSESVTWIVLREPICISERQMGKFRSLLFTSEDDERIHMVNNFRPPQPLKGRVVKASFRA
# assay: Binding affinity to recombinant human CA7 by DSF-based fluorescence thermal shift assay
Use Kd to assign classes; range list: label 0: < 0.2 µM; label 1: ≥ 0.2 µM and < 20 µM; label 2: ≥ 20 µM

Incoming: Could you tell me which band Cc1cc(N2CC(c3n[nH]c(=S)n3-c3ccccc3)CC2=O)cc(C)c1S(N)(=O)=O (stereo not given) belongs to?
Outgoing: label 1

Incoming: Could you tell me which band NS(=O)(=O)c1ccc(NC(=O)C2CC(=O)N(c3ccc(Br)cc3)C2)cc1 (stereo not given) belongs to?
Outgoing: label 1

Incoming: Could you tell me which band Cc1cc(N2CC(C(=O)N/N=C/c3ccccc3)CC2=O)cc(C)c1S(N)(=O)=O (stereo not given) belongs to?
Outgoing: label 2

Incoming: Could you tell me which band Cc1c(Br)c(N2CC(C(=O)N/N=C/c3ccccc3)CC2=O)c(Br)c(C)c1S(N)(=O)=O (stereo not given) belongs to?
Outgoing: label 2

Incoming: Could you tell me which band Cc1c(Br)c(N2CC(C(=O)O)CC2=O)c(Br)c(C)c1S(N)(=O)=O (stereo not given) belongs to?
Outgoing: label 2

----------
# targetUnderTest: Carbonic anhydrase 7 (Homo sapiens)
# assay: Binding affinity to recombinant human CA7 by DSF-based fluorescence thermal shift assay
pKd: −log10 of the molar value.
Please enter YES where pKd is greater than or equal to 7, and NO where it is lower.

molecule: NS(=O)(=O)c1ccc(NC(=O)C2CC(=O)N(c3ccccc3Br)C2)cc1 (centres undefined)
classLabel: YES
//
molecule: Cc1cc(N2CC(C(=O)N/N=C/c3ccc(Cl)cc3)CC2=O)cc(C)c1S(N)(=O)=O (centres undefined)
classLabel: NO
//
molecule: COC(=O)C1CC(=O)N(c2cc(C)c(S(N)(=O)=O)cc2C)C1 (centres undefined)
classLabel: YES
//
molecule: Cc1cc(N2CC(C(=O)N/N=C/c3ccc(Cl)cc3)CC2=O)c(Cl)c(C)c1S(N)(=O)=O (centres undefined)
classLabel: YES
//
molecule: Cc1cc(N2CC(C(=O)N/N=C/c3ccc([N+](=O)[O-])cc3)CC2=O)cc(C)c1S(N)(=O)=O (centres undefined)
classLabel: NO

Incoming: Is pKd for Cc1cc(N2CC(C(=O)NNC(=S)Nc3ccccc3)CC2=O)cc(C)c1S(N)(=O)=O (centres undefined) at or above 7?
Outgoing: NO

Incoming: Is pKd for Cc1cc(N2CC(C(=O)O)CC2=O)cc(C)c1S(=O)(=O)Cl (centres undefined) at or above 7?
Outgoing: NO

Incoming: Is pKd for Cc1c(Br)c(N2CC(C(=O)NN)CC2=O)c(Br)c(C)c1S(N)(=O)=O (centres undefined) at or above 7?
Outgoing: NO

----------
# targetUnderTest: Carbonic anhydrase 4 (Homo sapiens)
# assay: Binding affinity to recombinant human CA4 by DSF-based fluorescence thermal shift assay
observable: pKd
// pKd here means minus log10 of the molar concentration (mol/L)

Incoming: Consider the molecule Cc1cc(N2CC(C(=O)N/N=C/c3ccc([N+](=O)[O-])cc3)CC2=O)cc(C)c1S(N)(=O)=O (stereo not given) and give its measured pKd.
Outgoing: 5.33

Incoming: Consider the molecule NS(=O)(=O)c1ccc(NC(=O)C2CC(=O)N(c3ccccc3Br)C2)cc1 (stereo not given) and give its measured pKd.
Outgoing: 6.40

Incoming: Consider the molecule COC(=O)C1CC(=O)N(c2cc(C)c(S(N)(=O)=O)c(C)c2)C1 (stereo not given) and give its measured pKd.
Outgoing: 5.17

Incoming: Consider the molecule NNC(=O)C1CC(=O)N(c2ccc(S(N)(=O)=O)cc2)C1 (stereo not given) and give its measured pKd.
Outgoing: 5.66

Incoming: Consider the molecule COc1ccc(/C=N/NC(=O)C2CC(=O)N(c3cc(C)c(S(N)(=O)=O)c(C)c3Cl)C2)cc1 (stereo not given) and give its measured pKd.
Outgoing: 6.74

Incoming: Consider the molecule Cc1cc(S(N)(=O)=O)c(C)cc1N1CC(C(=O)N/N=C/c2ccc([N+](=O)[O-])cc2)CC1=O (stereo not given) and give its measured pKd.
Outgoing: 4.77

Incoming: Consider the molecule Cc1cc(N2CC(C(=O)N/N=C/c3ccc(Cl)cc3)CC2=O)cc(C)c1S(N)(=O)=O (stereo not given) and give its measured pKd.
Outgoing: 4.74

----------
# targetUnderTest: Carbonic anhydrase 5B, mitochondrial (Homo sapiens)
# Sequence (Q9Y2D0 whole entry): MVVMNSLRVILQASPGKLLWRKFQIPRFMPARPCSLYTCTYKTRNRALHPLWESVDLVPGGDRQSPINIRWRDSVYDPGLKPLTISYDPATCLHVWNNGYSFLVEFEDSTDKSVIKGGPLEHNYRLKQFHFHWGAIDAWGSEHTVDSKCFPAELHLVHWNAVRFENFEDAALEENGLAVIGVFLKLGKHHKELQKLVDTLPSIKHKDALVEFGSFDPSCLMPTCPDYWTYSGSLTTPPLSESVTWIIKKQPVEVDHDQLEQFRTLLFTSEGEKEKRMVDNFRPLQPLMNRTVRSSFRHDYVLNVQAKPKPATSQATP
# assay: Binding affinity to recombinant full length N-terminal His6x-tagged human CA5B expressed in Escherichia coli Rosetta 2 (DE3) by DSF-based fluorescence thermal shift assay
observable: Kd (nM)
Your answer is read as nM, so omit the unit and give the number.

molecule: Cc1cc(N2CC(c3n[nH]c(=S)n3-c3ccccc3)CC2=O)c(Cl)c(C)c1S(N)(=O)=O (centres undefined)
targetUnderTest: Carbonic anhydrase 5B, mitochondrial (Homo sapiens)
observable: Kd
numericReadout: 40

Incoming: Consider the molecule NS(=O)(=O)c1ccc(N2CC(C(=O)N/N=C/c3ccccc3)CC2=O)cc1 (centres undefined) and give its measured Kd.
Outgoing: 1300

Incoming: Consider the molecule Cc1cc(N2CC(C(=O)N/N=C/c3ccc(Br)cc3)CC2=O)cc(C)c1S(N)(=O)=O (centres undefined) and give its measured Kd.
Outgoing: 630

----------
# targetUnderTest: UniProt P00915
# Sequence (P00915 whole entry): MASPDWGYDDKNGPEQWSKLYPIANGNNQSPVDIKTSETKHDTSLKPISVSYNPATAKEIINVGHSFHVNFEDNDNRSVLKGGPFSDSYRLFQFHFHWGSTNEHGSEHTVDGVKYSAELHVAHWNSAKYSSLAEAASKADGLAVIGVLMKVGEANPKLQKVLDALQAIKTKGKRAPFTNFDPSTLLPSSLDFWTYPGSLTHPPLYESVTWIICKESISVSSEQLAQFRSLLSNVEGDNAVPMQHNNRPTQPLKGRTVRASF
# assay: Binding affinity to recombinant human CA1 by DSF-based fluorescence thermal shift assay
Listed here are compounds together with their documented pKd.
// pKd here means minus log10 of the molar concentration (mol/L)

compound: Cc1cc(N2CC(C(=O)NN)CC2=O)c(Cl)c(C)c1S(N)(=O)=O (centres undefined)
pKd: 5.60
//
compound: NS(=O)(=O)c1ccc(NC(=O)C2CC(=O)N(c3ccccc3Br)C2)cc1 (centres undefined)
pKd: 6.68
//
compound: COc1ccc(/C=N/NC(=O)C2CC(=O)N(c3cc(C)c(S(N)(=O)=O)c(C)c3Cl)C2)cc1 (centres undefined)
pKd: 6.15
//
compound: Cc1cc(N2CC(c3n[nH]c(=S)n3-c3ccccc3)CC2=O)c(Cl)c(C)c1S(N)(=O)=O (centres undefined)
pKd: 6.36
//
compound: COC(=O)C1CC(=O)N(c2cc(C)c(S(N)(=O)=O)c(C)c2)C1 (centres undefined)
pKd: 5.82
//
compound: NS(=O)(=O)c1ccc(NC(=O)C2CC(=O)N(c3ccccc3)C2)cc1 (centres undefined)
pKd: 6.59
//
compound: COC(=O)C1CC(=O)N(c2cc(C)c(S(N)(=O)=O)cc2C)C1 (centres undefined)
pKd: 4.96
//
compound: NS(=O)(=O)c1ccc(N2CC(C(=O)N/N=C/c3ccccc3)CC2=O)cc1 (centres undefined)
pKd: 6.20

Incoming: For UniProt P00915, provide pKd of Cc1cc(C)n(C(=O)C2CC(=O)N(c3cc(C)c(S(N)(=O)=O)c(C)c3)C2)n1 (centres undefined) please.
Outgoing: 5.82

Incoming: For UniProt P00915, provide pKd of Cc1cc(N2CC(C(=O)NN3CC(C(=O)O)CC3=O)CC2=O)cc(C)c1S(N)(=O)=O (centres undefined) please.
Outgoing: 4.89

Incoming: For UniProt P00915, provide pKd of Cc1cc(C)n(C(=O)C2CC(=O)N(c3cc(C)c(S(N)(=O)=O)c(C)c3Cl)C2)n1 (centres undefined) please.
Outgoing: 6.60

Incoming: For UniProt P00915, provide pKd of Cc1cc(N2CC(C(=O)O)CC2=O)cc(C)c1S(N)(=O)=O (centres undefined) please.
Outgoing: 4.70

Incoming: For UniProt P00915, provide pKd of Cc1cc(S(N)(=O)=O)c(C)cc1N1CC(C(=O)O)CC1=O (centres undefined) please.
Outgoing: 4.42

Incoming: For UniProt P00915, provide pKd of Cc1cc(N2CC(C(=O)N/N=C/c3ccc([N+](=O)[O-])cc3)CC2=O)c(Cl)c(C)c1S(N)(=O)=O (centres undefined) please.
Outgoing: 6.48

Incoming: For UniProt P00915, provide pKd of Cc1cc(C)n(NC(=O)C2CC(=O)N(c3cc(C)c(S(N)(=O)=O)c(C)c3)C2)n1 (centres undefined) please.
Outgoing: 5.54

Incoming: For UniProt P00915, provide pKd of NS(=O)(=O)c1ccc(N2CC(C(=O)O)CC2=O)cc1 (centres undefined) please.
Outgoing: 5.38

Incoming: For UniProt P00915, provide pKd of Cc1cc(S(N)(=O)=O)c(C)cc1N1CC(C(=O)N/N=C/c2ccc([N+](=O)[O-])cc2)CC1=O (centres undefined) please.
Outgoing: 5.21

Incoming: For UniProt P00915, provide pKd of Cc1cc(N2CC(C(=O)N/N=C/c3ccc(Br)cc3)CC2=O)cc(C)c1S(N)(=O)=O (centres undefined) please.
Outgoing: 5.60

Incoming: For UniProt P00915, provide pKd of Cc1cc(N2CC(C(=O)O)CC2=O)c(Cl)c(C)c1S(N)(=O)=O (centres undefined) please.
Outgoing: 5.37

Incoming: For UniProt P00915, provide pKd of Cc1cc(N2CC(c3n[nH]c(=S)o3)CC2=O)c(Cl)c(C)c1S(N)(=O)=O (centres undefined) please.
Outgoing: 6.08

Incoming: For UniProt P00915, provide pKd of COC(=O)C1CC(=O)N(c2ccc(S(N)(=O)=O)cc2)C1 (centres undefined) please.
Outgoing: 6.00

Incoming: For UniProt P00915, provide pKd of Cc1cc(N2CC(C(=O)N/N=C/c3ccccc3)CC2=O)cc(C)c1S(N)(=O)=O (centres undefined) please.
Outgoing: 5.66

Incoming: For UniProt P00915, provide pKd of Cc1cc(N2CC(C(=O)N/N=C/c3ccc(Cl)cc3)CC2=O)c(Cl)c(C)c1S(N)(=O)=O (centres undefined) please.
Outgoing: 6.17

Incoming: For UniProt P00915, provide pKd of Cc1cc(N2CC(C(=O)N/N=C/c3ccc([N+](=O)[O-])cc3)CC2=O)cc(C)c1S(N)(=O)=O (centres undefined) please.
Outgoing: 6.00

Incoming: For UniProt P00915, provide pKd of Cc1cc(N2CC(C(=O)NNC(=S)Nc3ccccc3)CC2=O)c(Cl)c(C)c1S(N)(=O)=O (centres undefined) please.
Outgoing: 6.44

Incoming: For UniProt P00915, provide pKd of Cc1cc(N2CC(c3n[nH]c(=S)n3-c3ccccc3)CC2=O)cc(C)c1S(N)(=O)=O (centres undefined) please.
Outgoing: 5.60

This collection of values is drawn from ChEMBL document CHEMBL4308907.
